target: Shiga toxin 2 (Escherichia coli O157:H7) (UniProt P09385+P09386); experiment: E. coli 0.157:H7 Shiga Toxin SOP - stx2 screening assay; assay type: functional; design: scale not given: direction of the effect not stated beside the values; conditions: 30 µM
ASSAY ENDPOINT: Percent Effect (%)

[[record]]
compound = "N#Cc1ccc(OCCN2CCc3c(ncn3C3CC3)C2)cc1"
readout_value = -40.3

[[record]]
compound = "Cc1nc(C)n(CC2CN(CC(=O)Nc3cccnc3)CCO2)n1 (configuration not stated)"
readout_value = 2.66

[[record]]
compound = "Cc1ccc(CN2CC3(CCN(C(=O)c4cscn4)C3)C2)s1"
readout_value = -39.3

[[record]]
compound = "COCCc1noc(CN2CCc3nn(C(C)C)c(=O)cc3C2)n1"
readout_value = 19.6

[[record]]
compound = "O=C1CCC(C(=O)NCc2nncn2-c2ccccc2)CN1 (configuration not stated)"
readout_value = 4.47

[[record]]
compound = "CC(NC(=O)NCc1cc[nH]n1)c1ccc2c(c1)CCC(=O)N2 (configuration not stated)"
readout_value = -11.9

[[record]]
compound = "COC(=O)CCC(=O)N1CCc2[nH]nc(-c3ccc(F)c(F)c3)c2C1"
readout_value = -11.9

[[record]]
compound = "COc1cccc2c1ccn2CCC(=O)NCCCC(=O)O"
readout_value = -21

[[record]]
compound = "Cn1ccc(CN2CCC(NC(=O)Cc3ccccc3)CC2)cc1=O"
readout_value = 8

[[record]]
compound = "CC(=O)N1CCC(CN2CCN(Cc3nccn3C)C(C)C2)CC1 (configuration not stated)"
readout_value = 18.6

[[record]]
compound = "COc1ccc(CNC(=O)NC2CCC(O)CC2)c(C(F)(F)F)c1 (configuration not stated)"
readout_value = 3.3

[[record]]
compound = "COc1cccc(CN(C)Cc2ccc(C#N)cc2)c1OC"
readout_value = 9.74

